This collection of values is drawn from patent US20070117743A1.

- System: HT-29
- Assay Details: SRB colorimetric assay of cell growth and viability, HT-29
- Type: cell-based, human
- Condition Details: 48 hours exposure; read-out: LC50 HT-29
Where a SMILES comes first, the peptide text is derived from it. Bridges are numbered along the chain shown (N, C = ends). [ ]: non-standard residue; d: D form. The star is where a group is joined. d(aIle) = CC[C@H](C)[C@@H](N)C(=O)O; d(aThr) = C[C@@H](O)[C@@H](N)C(=O)O; hCha = N[C@@H](CCC1CCCCC1)C(=O)O; Hexanoyl(5-Me) = CC(C)CCCC(=O)*; Orn = NCCC[C@H](N)C(=O)O; Dhb = C/C=C(\N)C(=O)O
Exercise: for every item that follows, state its recorded CC50.
I only need the number, in µM, no unit after it.

Exam item: I would be grateful if you could share the reported CC50 for C/C=C1\NC(=O)[C@H](Cc2ccccc2)NC(=O)[C@@H](C(C)C)NC(=O)[C@@H]([C@@H](C)CC)NC(=O)[C@H](NC(=O)[C@H](NC(=O)[C@H](CCCN)NC(=O)[C@H]2CCCN2C(=O)[C@H](NC(=O)[C@@H](NC(=O)[C@@H](NC(=O)[C@H](NC(=O)C(F)(F)C(F)(F)C(F)(F)C(F)(F)C(F)(F)C(F)(F)F)C(C)C)[C@@H](C)O)C(C)C)C(C)C)[C@@H](C)CC)[C@@H](C)OC(=O)[C@H](C(C)C)NC1=O [Compound 26, [Pfh^14]-KF] .
Marked response: 1.89

Exam item: What do we get for C/C=C1\NC(=O)[C@H](Cc2ccccc2)NC(=O)[C@@H](C(C)C)NC(=O)[C@@H]([C@@H](C)CC)NC(=O)[C@H](NC(=O)[C@H](NC(=O)[C@H](CCCN)NC(=O)[C@H]2CCCN2C(=O)[C@H](NC(=O)[C@@H](NC(=O)[C@@H](NC(=O)[C@H](NC(=O)CCCC(C)C)[C@H](C)O)[C@@H](C)O)C(C)C)C(C)C)[C@@H](C)CC)[C@@H](C)OC(=O)[C@H](C(C)C)NC1=O [Compound 41, [D-Thr^13]-KF] ?
Marked response: 3.41

Exam item: // repeat for C/C=C1\NC(=O)[C@H](Cc2ccccc2)NC(=O)[C@@H](C(C)C)NC(=O)[C@@H]([C@@H](C)CC)NC(=O)[C@H](NC(=O)[C@H](NC(=O)[C@H](CCCN)NC(=O)[C@H]2CCCN2C(=O)[C@H](NC(=O)[C@@H](NC(=O)[C@@H](NC(=O)[C@H]2CCCN2C(=O)CCCC(C)C)[C@@H](C)O)C(C)C)C(C)C)[C@@H](C)CC)[C@@H](C)OC(=O)[C@H](C(C)C)NC1=O [Compound 37, [D-Pro^13]-KF] and report
Marked response: 6.78

Exam item: Field entry: C/C=C1\NC(=O)[C@H](Cc2ccccc2)NC(=O)[C@@H](C(C)C)NC(=O)[C@@H]([C@@H](C)CC)NC(=O)[C@H](NC(=O)[C@H](NC(=O)[C@H](CCCN)NC(=O)[C@H]2CCCN2C(=O)[C@H](NC(=O)[C@@H](NC(=O)[C@@H](NC(=O)[C@H](NC(=O)CCCCCCCCCCCCCCCCCCC)C(C)C)[C@@H](C)O)C(C)C)C(C)C)[C@@H](C)CC)[C@@H](C)OC(=O)[C@H](C(C)C)NC1=O [Compound 13, [Icos^14]-KF]
Marked response: 4.28

Exam item: # iterate: C/C=C1\NC(=O)[C@H](Cc2ccccc2)NC(=O)[C@@H](C(C)C)NC(=O)[C@@H]([C@@H](C)CC)NC(=O)[C@H](NC(=O)[C@H](NC(=O)[C@H](CCCN)NC(=O)[C@H]2CCCN2C(=O)[C@H](NC(=O)[C@H](CCC2CCCCC2)NC(=O)[C@@H](NC(=O)[C@H](NC(=O)CCCC(C)C)C(C)C)[C@@H](C)O)C(C)C)[C@@H](C)CC)[C@@H](C)OC(=O)[C@H](C(C)C)NC1=O [Compound 9, [hCh^11]-KF] ({Hexanoyl(5-Me)}-[dV]T[hCha][dV][dP][Orn][d(aIle)][d(aThr)][d(aIle)][dV]F[Dhb]V; ester 8-C)
Marked response: 0.429

----------
- Test system: LoVo
- Assay Details: SRB colorimetric assay of cell growth and viability, LoVo
- Type: cell-based, human
- Condition Details: 48 hours exposure; read-out: LC50 LOVO
Where a SMILES comes first, the peptide text is derived from it. Bridges are numbered along the chain shown (N, C = ends). [ ]: non-standard residue; d: D form. The star is where a group is joined. d(aIle) = CC[C@H](C)[C@@H](N)C(=O)O; d(aThr) = C[C@@H](O)[C@@H](N)C(=O)O; Hexanoyl(5-Me) = CC(C)CCCC(=O)*; Orn = NCCC[C@H](N)C(=O)O; Dhb = C/C=C(\N)C(=O)O
Outcome Measure: log10 CC50 (log10 of the value in nM)
Hi team, quick reminder: these entries are log10 of CC50 (nM).

Exam item: // returns reported log10 CC50 for input C/C=C1\NC(=O)[C@H](Cc2ccccc2)NC(=O)[C@@H](C(C)C)NC(=O)[C@@H]([C@@H](C)CC)NC(=O)[C@H](NC(=O)[C@H](NC(=O)[C@H](CCCN)NC(=O)[C@H]2CCCN2C(=O)[C@H](NC(=O)[C@@H](NC(=O)[C@@H](NC(=O)[C@H]2CCCN2C(=O)CCCC(C)C)[C@@H](C)O)C(C)C)C(C)C)[C@@H](C)CC)[C@@H](C)OC(=O)[C@H](C(C)C)NC1=O [Compound 37, [D-Pro^13]-KF]
Marked response: 3.47

Exam item: // next record C/C=C1\NC(=O)[C@H](Cc2ccccc2)NC(=O)[C@@H](C(C)C)NC(=O)[C@@H]([C@@H](C)CC)NC(=O)[C@H](NC(=O)[C@H](NC(=O)[C@H](CCCN)NC(=O)[C@H]2CCCN2C(=O)[C@H](NC(=O)[C@@H](NC(=O)[C@@H](NC(=O)[C@H](NC(=O)CCCC(C)C)[C@H](C)O)[C@@H](C)O)C(C)C)C(C)C)[C@@H](C)CC)[C@@H](C)OC(=O)[C@H](C(C)C)NC1=O [Compound 41, [D-Thr^13]-KF]
Marked response: 3.46

Exam item: Now give it for C/C=C1\NC(=O)[C@H](Cc2ccccc2)NC(=O)[C@@H](C(C)C)NC(=O)[C@@H]([C@@H](C)CC)NC(=O)[C@H](NC(=O)[C@H](NC(=O)[C@H](CCCN)NC(=O)[C@H]2CCCN2C(=O)[C@H](NC(=O)[C@@H](NC(=O)[C@@H](NC(=O)[C@H](NC(=O)c2ccccc2)C(C)C)[C@@H](C)O)C(C)C)C(C)C)[C@@H](C)CC)[C@@H](C)OC(=O)[C@H](C(C)C)NC1=O [Compound 20, [Bza^14]-KF] too.
Marked response: 2.91

Exam item: Now try C/C=C1\NC(=O)[C@H](Cc2ccccc2)NC(=O)[C@@H](C(C)C)NC(=O)[C@@H]([C@@H](C)CC)NC(=O)[C@H](NC(=O)[C@H](NC(=O)[C@H](CCCN)NC(=O)[C@H]2CCCN2C(=O)[C@H](NC(=O)[C@H](CCC(=O)O)NC(=O)[C@@H](NC(=O)[C@H](NC(=O)CCCC(C)C)C(C)C)[C@@H](C)O)C(C)C)[C@@H](C)CC)[C@@H](C)OC(=O)[C@H](C(C)C)NC1=O [Compound 51, [Glu^11]-KF] ({Hexanoyl(5-Me)}-[dV]TE[dV][dP][Orn][d(aIle)][d(aThr)][d(aIle)][dV]F[Dhb]V; ester 8-C) .
Marked response: 3.82

Exam item: Continue with C/C=C1\NC(=O)[C@H](Cc2ccccc2)NC(=O)[C@@H](C(C)C)NC(=O)[C@@H]([C@@H](C)CC)NC(=O)[C@H](NC(=O)[C@H](NC(=O)[C@H](CCCN)NC(=O)[C@H]2CCCN2C(=O)[C@H](NC(=O)[C@@H](NC(=O)CNC(=O)CCCC(C)C)C(C)C)C(C)C)[C@@H](C)CC)[C@@H](C)OC(=O)[C@H](C(C)C)NC1=O [Compound 53, [Gly^12, noD-Val^13]-KF] ({Hexanoyl(5-Me)}-GV[dV][dP][Orn][d(aIle)][d(aThr)][d(aIle)][dV]F[Dhb]V; ester 7-C)
Marked response: 3.87

Exam item: Okay, and C/C=C1\NC(=O)[C@H](Cc2ccccc2)NC(=O)[C@@H](C(C)C)NC(=O)[C@@H]([C@@H](C)CC)NC(=O)[C@H](NC(=O)[C@H](NC(=O)[C@H](CCCN)NC(=O)[C@H]2CCCN2C(=O)[C@H](NC(=O)[C@@H](NC(=O)[C@@H](NC(=O)[C@@H](C)NC(=O)CCCC(C)C)[C@@H](C)O)C(C)C)C(C)C)[C@@H](C)CC)[C@@H](C)OC(=O)[C@H](C(C)C)NC1=O [Compound 34, [D-Ala^13]-KF] ?
Marked response: 3.47

Exam item: Another compound to look at: C/C=C1\NC(=O)[C@H](Cc2ccccc2)NC(=O)[C@@H](C(C)C)NC(=O)[C@@H](C(C)CC)NC(=O)[C@H](NC(=O)[C@H](NC(=O)[C@H](CCCN)NC(=O)[C@H]2CCCN2C(=O)[C@H](NC(=O)[C@@H](NC(=O)[C@@H](NC(=O)[C@H](NC(=O)CCC(C)CC)C(C)C)C(C)O)C(C)C)C(C)C)C(C)CC)C(C)OC(=O)[C@H](C(C)C)NC1=O (stereo partly drawn)
Marked response: 2.70

Exam item: Moving on to the next compound: C/C=C1\NC(=O)[C@H](Cc2ccccc2)NC(=O)[C@@H](C(C)C)NC(=O)[C@@H]([C@@H](C)CC)NC(=O)[C@H](NC(=O)[C@H](NC(=O)[C@H](CCCN)NC(=O)[C@H]2CCCN2C(=O)[C@H](NC(=O)[C@H](NC(=O)[C@@H](NC(=O)[C@H](NC(=O)CCCC(C)C)C(C)C)[C@@H](C)O)C(C)C)C(C)C)[C@@H](C)CC)[C@@H](C)OC(=O)[C@H](C(C)C)NC1=O [Compound 46, [D-Val^11]-KF]
Marked response: 3.64

Exam item: Same thing, different compound: C/C=C1\NC(=O)[C@H](Cc2ccccc2)NC(=O)[C@@H](C(C)C)NC(=O)[C@@H]([C@@H](C)CC)NC(=O)[C@H](NC(=O)[C@H](NC(=O)[C@H](CCCN)NC(=O)[C@H]2CCCN2C(=O)[C@H](NC(=O)CCCC(C)C)C(C)C)[C@@H](C)CC)[C@@H](C)OC(=O)[C@H](C(C)C)NC1=O [Compound 31, [noVal^11, noThr^12, noD-Val^13]-KF] ({Hexanoyl(5-Me)}-[dV][dP][Orn][d(aIle)][d(aThr)][d(aIle)][dV]F[Dhb]V; ester 5-C)
Marked response: 3.93
